Tested on: SNB-19
Procedure text: Growth inhibition of human SNB19 cells incubated for 48 hrs by sulforhodamine B assay
Format: functional
Experimental context: SNB-19, 48 h
// NB: equality with 5 µM counts as Not fulfilled; only TGI strictly below is Fulfilled

[[record]]
molecule = "Cc1nc2cc(O)c(O)cc2cc1Oc1ccc(NC(=O)Nc2ccc(Cl)c(Cl)c2)cc1"
group_label = "Not fulfilled"

[[record]]
molecule = "CNC(=O)c1cc(Oc2ccc(NC(=O)Nc3ccc(Cl)c(C(F)(F)F)c3)cc2)ccn1 [SORAFENIB]"
group_label = "Fulfilled"

[[record]]
molecule = "COc1cc2cc(Oc3ccc(NC(=O)Nc4cccc(C(F)(F)F)c4)cc3)c(C)nc2cc1OC"
group_label = "Not fulfilled"

[[record]]
molecule = "COc1cc2cc(Oc3ccc(NC(=O)Nc4ccc(Cl)c(Cl)c4)cc3)c(C)nc2cc1OC"
group_label = "Not fulfilled"


Hello, is TGI of the following molecule strictly smaller than 5 µM? COc1cc2cc(Oc3ccc(NC(=O)Nc4ccc(Cl)c(C(F)(F)F)c4)cc3)c(C)nc2cc1OC
Not fulfilled

I wonder whether COc1cc2cc(Oc3ccc(NC(=O)Nc4cc(C(F)(F)F)cc(C(F)(F)F)c4)cc3)c(C)nc2cc1OC has TGI below 5 µM. Can you tell?
Fulfilled
